experiment: clinical; conditions: human, in vivo
VALUE_KIND: AUC(0-t) (ng·h/mL)
Dear colleague, please return just the value in ng·h/mL, with no unit written.

Q: Reported AUC(0-t) for `CCN(CC)CCNC(=O)c1c(C)[nH]c(/C=C2\C(=O)Nc3ccc(F)cc32)c1C` : what is it?
A: 226

* * *

assay: clinical; conditions: human, in vivo, 25 mg
VALUE_KIND: AUC(0-t) (ng·h/mL)
API: value field is a number in ng·h/mL; no unit string.

Q: Tell me the measured AUC(0-t) of CCN(CC)CCNC(=O)c1c(C)[nH]c(/C=C2\C(=O)Nc3ccc(F)cc32)c1C [Sunitinib, sunitinib] , please.
A: 266

* * *

Assay: clinical
Conditions: human, in vivo, 250 mg
Protocol: In cycle 1, sunitinib administration started on day 2. Both agents were evaluated in combination on cycle 2 day 1; samples were drawn before drug administration and at 1, 1.5, 2, 4, 6, 8, 10, and 24 hours post-dose. Pharmacokinetic parameter values were calculated for each subject by noncompartmental analysis of concentration–time data using WinNonlin version 4.1 (http://pharmacy.ucsf.edu/irc/pdfs/wul_users_guide.pdf). […]
VALUE_KIND: Cmax (ng/mL)
Respond numerically; units are ng/mL and should not be typed.

Q: Fill in the blank: the reported Cmax of CCc1c2c(nc3ccc(OC(=O)N4CCC(N5CCCCC5)CC4)cc13)-c1cc3c(c(=O)n1C2)COC(=O)[C@]3(O)CC [Irinotecan, irinotecan] is ____.
A: 2900

* * *

test: clinical; conditions: human, in vivo, AUC0–∞
VALUE_KIND: AUC(0-inf) (ng·h/mL)
Numeric only. Scale: ng·h/mL

Q: I am curious: what AUC(0-inf) value has been reported for `CCc1c2c(nc3ccc(OC(=O)N4CCC(N5CCCCC5)CC4)cc13)-c1cc3c(c(=O)n1C2)COC(=O)[C@]3(O)CC` ?
A: 15900
